The measured values listed here are drawn from paper PMC8586704.

Let's look at some molecules and their measured pIC50.
- System: L02
- Assay: cells
- Type: cell-based
- Protocol Conditions: normal human hepatic cell line
pIC50: −log10 of the molar value. Starred links: 1 amine or outer side, 2 acyl side, 3 side chain; linkers in the order of their positions; H or OH if unused. Non-standard residues stand in square brackets, D forms with d. Residues, ends and D or L forms follow the SMILES beside them. *: point of attachment. Trp(1-(1,1-Me2-allyl)) = C=CC(C)(C)n1cc(C[C@H](N)C(=O)O)c2ccccc21; X5 = O=C(Oc1ccc(C[C@H](N[*:1])C(=O)[*:2])cc1[N+](=O)[O-])c1cnccn1; NMeGlu(4S-Me) = C[C@@H](C[C@@H](C(=O)[*:2])N(C)[*:1])C(=O)[*:3]; X14 = C[C@@H](C[C@@H](C(=O)[*:2])N(C)[*:1])C(=O)NCc1ccc(Cl)cc1; Tyr(3-NO2) = N[C@@H](Cc1ccc(O)c([N+](=O)[O-])c1)C(=O)O; X7 = O=C1O[C@@H](CN*)CN1c1ccc(N2CCOCC2)c(F)c1; Gly(E-crotyl) = C/C=C/C[C@H](N)C(=O)O; NMeL = CN[C@@H](CC(C)C)C(=O)O

Worked cases, pIC50 given:
| Molecule | pIC50 |
| --- | --- |
| C=CC(C)(C)n1cc(C[C@@H]2NC(=O)[C@H](C/C=C/C)NC(=O)[C@H](CC(C)C)NC(=O)[C@H](C[C@H](C)C(=O)NCc3ccc(Cl)cc3)N(C)C(=O)[C@H](C)NC(=O)[C@H](Cc3ccc(O)c([N+](=O)[O-])c3)NC(=O)[C@H](CC(C)C)N(C)C2=O)c2ccccc21 [Compound 11, ilamycin NJL11] (cyclo(A[X14]L[Gly(E-crotyl)][Trp(1-(1,1-Me2-allyl))][NMeL][Tyr(3-NO2)])) | < 4.30 |
| C=CC(C)(C)n1cc(C[C@@H]2NC(=O)[C@H](C/C=C/C)NC(=O)[C@H](CC(C)C)NC(=O)[C@H](C[C@H](C)C(=O)O)N(C)C(=O)[C@H](C)NC(=O)[C@H](Cc3ccc(OC(=O)c4cnccn4)c([N+](=O)[O-])c3)NC(=O)[C@H](CC(C)C)N(C)C2=O)c2ccccc21 [Compound 15, ilamycin NJL15] (cyclo(A[NMeGlu(4S-Me)]L[Gly(E-crotyl)][Trp(1-(1,1-Me2-allyl))][NMeL][X5])) | < 4.30 |

[in] So what's the measured pIC50 for this one? C=CC(C)(C)n1cc(C[C@@H]2NC(=O)[C@H](C/C=C/C)NC(=O)[C@H](CC(C)C)NC(=O)[C@H](C[C@H](C)C(=O)NC[C@H]3CN(c4ccc(N5CCOCC5)c(F)c4)C(=O)O3)N(C)C(=O)[C@H](C)NC(=O)[C@H](Cc3ccc(O)c([N+](=O)[O-])c3)NC(=O)[C@H](CC(C)C)N(C)C2=O)c2ccccc21 [Compound 14, ilamycin NJL14] (cyclo(A[NMeGlu(4S-Me)](X7)L[Gly(E-crotyl)][Trp(1-(1,1-Me2-allyl))][NMeL][Tyr(3-NO2)]))
[out] < 4.30

----------
- System: M. tuberculosis H37Rv
- Assay: Antitubercular activity assay, broth dilution, auto-luminescent strain
- Format: cell-based, Mycobacterium tuberculosis
- Protocol Conditions: Day 14th; read-out: MICs against H37Rv, Day 14th
Starred links: 1 amine or outer side, 2 acyl side, 3 side chain; linkers in the order of their positions; H or OH if unused. Non-standard residues stand in square brackets, D forms with d. Residues, ends and D or L forms follow the SMILES beside them. Groups on a side chain read outwards from the residue. Trp(1-(1,1-Me2-allyl)) = C=CC(C)(C)n1cc(C[C@H](N)C(=O)O)c2ccccc21; NMeGlu(4S-Me) = C[C@@H](C[C@@H](C(=O)[*:2])N(C)[*:1])C(=O)[*:3]; Tyr(3-NO2) = N[C@@H](Cc1ccc(O)c([N+](=O)[O-])c1)C(=O)O; Gly(E-crotyl) = C/C=C/C[C@H](N)C(=O)O; NMeL = CN[C@@H](CC(C)C)C(=O)O
Value Type: MIC (µM)
Quick note: give the figure in µM, leave out the unit.

[in] Which MIC is reported with M. tuberculosis H37Rv for this entry: C=CC(C)(C)n1cc(C[C@@H]2NC(=O)[C@H](C/C=C/C)NC(=O)[C@H](CC(C)C)NC(=O)[C@H](C[C@H](C)C(=O)N[C@@H](Cc3ccc(O)cc3)C(=O)OC)N(C)C(=O)[C@H](C)NC(=O)[C@H](Cc3ccc(O)c([N+](=O)[O-])c3)NC(=O)[C@H](CC(C)C)N(C)C2=O)c2ccccc21 [Compound 8, ilamycin NJL8] (cyclo(A[NMeGlu(4S-Me)]([Tyr-OMe])L[Gly(E-crotyl)][Trp(1-(1,1-Me2-allyl))][NMeL][Tyr(3-NO2)])) ?
[out] 1.6
